system: A2058 (human metastatic melanoma cells, Rb-negative); assay: Cellular proliferation assay (CellTiter-Glo), A2058; type: cell-based; details: A2058, 144 h, cell viability after six days
Can you tell me EC50 for the items I'm about to list?

Consider the following illustrative entries.
{"compound": "CC1(C)CN(c2ccc(Nc3ncc4cc5n(c4n3)C3(CCCCC3)CNC5=O)nc2)CCN1", "target-entity": "A2058 (human metastatic melanoma cells, Rb-negative)", "EC50": "1060 nM"}
{"compound": "CN1CCN(c2ccc(Nc3ncc4cc5n(c4n3)C3(CCCCC3)CNC5=O)nc2)CC1(C)C", "target-entity": "A2058 (human metastatic melanoma cells, Rb-negative)", "EC50": "1670 nM"}
{"compound": "O=C1NCC2(CCCC2)n2c1cc1cnc(Nc3ccc(C(=O)N4CCN(CC5CC5)CC4)cn3)nc12", "target-entity": "A2058 (human metastatic melanoma cells, Rb-negative)", "EC50": "> 3000 nM"}
{"compound": "O=C1NCC2(CCCCC2)n2c1cc1cnc(Nc3ccc(C(=O)N4CCN(C5CCC5)CC4)cn3)nc12", "target-entity": "A2058 (human metastatic melanoma cells, Rb-negative)", "EC50": "> 3000 nM"}
{"compound": "CC1CN(c2ccc(Nc3ncc4cc5n(c4n3)C3(CCCCC3)CNC5=O)nc2)CC(C)N1CC1CC1 (centres unmarked)", "target-entity": "A2058 (human metastatic melanoma cells, Rb-negative)", "EC50": "> 3000 nM"}
{"compound": "C[C@@H]1CN(c2ccc(Nc3ncc4cc5n(c4n3)C3(CCCCC3)CNC5=O)nc2)C[C@H](C)N1", "target-entity": "A2058 (human metastatic melanoma cells, Rb-negative)", "EC50": "> 3000 nM"}
{"compound": "O=C1NCC2(CCCCC2)n2c1cc1cnc(Nc3ccc(N4CCNCC4)cn3)nc12", "target-entity": "A2058 (human metastatic melanoma cells, Rb-negative)", "EC50": "2610 nM"}

Attention now turns to another entry.
Tell us which EC50 value is on record for CCN(CC)C1CCN(c2ccc(Nc3ncc4cc5n(c4n3)C3(CCCCC3)CNC5=O)nc2)CC1
> 3000 nM
